Ref: patent US8952024B2

- Tested on: giant foxtail (Setaria faberii)
- run-description: Test A pre-/postemergence plant response
- Assay type: in vivo
- recorded-conditions: Preemergence, 500 g ai/ha; 0 to 100 scale, 0 = no effect, 100 = complete control
Can you tell me Plant response rating, Foxtail, Giant for the items I'm about to list?
Give bare numbers.

O=C(C1=C(O)C2CCC(C2)C1=O)c1cnc(-c2ccccc2)n(C2CCCCC2)c1=O (stereo not shown): 20
CCCn1c(-c2cccs2)ncc(C(=O)c2cnn(CC)c2O)c1=O: 10
COCCOCCn1c(-c2cc(F)cc(F)c2)ncc(C(=O)C2=C(O)CCCC2=O)c1=O: 80

# evaluate next
Task: State the recorded Plant response rating, Foxtail, Giant for this entry: O=C1CCCC(O)=C1C(=O)c1cnc(-c2ccc(F)cc2)n(C2CCCCC2)c1=O
Output: 50

====

- Tested on: goosegrass (Eleusine indica)
- run-description: Test B pre-/postemergence plant response
- Assay type: in vivo
- recorded-conditions: Postemergence, 250 g ai/ha; scale 0 to 100
Would you mind telling me the reported Goosegrass plant response rating of each entry?
Give bare numbers.

CCCCc1ncc(C(=O)C2=C(O)CCCC2=O)c(=O)n1-c1ccccc1: 95

Hi! Can you tell me Goosegrass plant response rating for each of these compounds?
1. Cc1ccc(-n2c(-c3ccccc3)ncc(C(=O)C3=C(O)CCCC3=O)c2=O)cc1
2. O=C1CCCC(O)=C1C(=O)c1cnc(-c2ccccc2)n(-c2ccccc2F)c1=O
3. COc1ccc(-n2c(-c3ccccc3)ncc(C(=O)C3=C(O)CCCC3=O)c2=O)cc1

Output:
1. 100
2. 95
3. 98

Task: Please look up its Goosegrass plant response rating: Cc1cc(C)cc(-n2c(-c3ccccc3)ncc(C(=O)C3=C(O)CCCC3=O)c2=O)c1
Output: 85

====

- Test system: barnyardgrass (Echinochloa crus-galli)
- run-description: Test A pre-/postemergence plant response
- Format: in vivo
- recorded-conditions: Postemergence, 500 g ai/ha; visual injury, 0 to 100 scale (0 no effect, 100 complete control), approx. ten days
observation-type: Barnyardgrass plant response rating
One number for each entry.

Solved entries:
O=C1CCCC(O)=C1C(=O)c1cnc(-c2ccc(F)cc2)n(C2CCCCC2)c1=O [Compound 197]: 100
CCc1ccc(-n2c(-c3ccccc3)ncc(C(=O)C3=C(O)CCCC3=O)c2=O)cc1 [Compound 219]: 90
O=C1CCCC(O)=C1C(=O)c1cnc(-c2cccs2)n(C2CCCCC2)c1=O [Compound 189]: 90
O=C1CCCC(O)=C1C(=O)c1cnc(-c2cc(F)cc(F)c2)n(-c2ccccc2)c1=O [Compound 161]: 90
CCc1ccc(-n2c(-c3cccc(Cl)c3)ncc(C(=O)C3=C(O)CCCC3=O)c2=O)cc1 [Compound 174]: 100
O=C1CCCC(O)=C1C(=O)c1cnc(-c2cc(F)cc(F)c2)n(C2CCCCC2)c1=O [Compound 181]: 100
O=C1CCCC(O)=C1C(=O)c1cnc(-c2cc(F)c(F)c(F)c2)n(C2CCCCC2)c1=O [Compound 205]: 100
O=C(C1=C(O)C2CCC(C2)C1=O)c1cnc(-c2cc(F)c(F)c(F)c2)n(C2CCCCC2)c1=O (centres unmarked) [Compound 251]: 100
COCCn1c(-c2ccsc2)ncc(C(=O)C2=C(O)C3CCC(C3)C2=O)c1=O (centres unmarked) [Compound 228]: 90
CCn1c(-c2cccc(C)c2)ncc(C(=O)C2=C(O)C3CCC(C3)C2=O)c1=O (centres unmarked) [Compound 231]: 90

Your task in this section: give Barnyardgrass plant response rating for each listed record.
1. CCc1cccc(-c2ncc(C(=O)C3=C(O)CCCC3=O)c(=O)n2C2CCCCC2)c1 [Compound 194]
2. Cc1cc(F)ccc1-n1c(-c2cccc(Br)c2)ncc(C(=O)C2=C(O)CCCC2=O)c1=O [Compound 166]
3. COCCn1c(-c2cccc(C)c2)ncc(C(=O)C2=C(O)C3CCC(C3)C2=O)c1=O (centres unmarked) [Compound 233]
4. C#Cc1ccc(-c2ncc(C(=O)C3=C(O)CCCC3=O)c(=O)n2C2CCCCC2)cc1 [Compound 216]
5. O=C1CCCC(O)=C1C(=O)c1cnc(-c2cccc(F)c2)n(CCC(F)(F)F)c1=O [Compound 208]

Output:
[100, 100, 90, 90, 90]

Your task in this section: give Barnyardgrass plant response rating for each listed record.
1. CCn1c(Cc2ccccc2)ncc(C(=O)C2=C(O)CCCC2=O)c1=O [Compound 200]
2. CC1(C)CC(=O)C(C(=O)c2cnc(-c3ccccc3)n(-c3ccccc3)c2=O)=C(O)C1 [Compound 225]

Output:
1: 10; 2: 100

====

Could you please report measured Plant response rating, Nutsedge, Yellow for the items listed next?
- Test system: yellow nutsedge (Cyperus esculentus)
- run-description: Test B pre-/postemergence plant response
- Format: in vivo
- recorded-conditions: 31 g ai/ha, postemergence; scale 0 to 100, 0 is no effect, 100 is complete control
Give bare numbers.

Cc1ccccc1-c1ncc(C(=O)C2=C(O)CCCC2=O)c(=O)n1-c1ccccc1: 10
COCC(C)n1c(-c2ccccc2)ncc(C(=O)C2=C(O)CCCC2=O)c1=O (stereo not shown): 75
COCCCn1c(-c2cc(F)cc(F)c2)ncc(C(=O)C2=C(O)CCCC2=O)c1=O: 5

Task: Give its Plant response rating, Nutsedge, Yellow value. Item: COCCn1c(-c2cc(F)cc(F)c2)ncc(C(=O)C2=C(O)CCCC2=O)c1=O
Output: 10

====

- Test system: yellow nutsedge (Cyperus esculentus)
- run-description: Test B pre-/postemergence plant response
- Type: in vivo
- recorded-conditions: Preemergence, 62 g ai/ha; scale 0 to 100 (0 no effect, 100 complete control)
Rule for this label: true means Plant response rating, Nutsedge, Yellow is less than 60; false means Plant response rating, Nutsedge, Yellow is at least 60.

Example entries begin here.
O=C1CCCC(O)=C1C(=O)c1cnc(-c2ccccc2)n(-c2ccccc2F)c1=O: true
O=C1CCCC(O)=C1C(=O)c1cnc(-c2cccc(Cl)c2)n(-c2ccc(Cl)cc2)c1=O: true

Task: In the record for COc1ccc(-n2c(-c3ccccc3)ncc(C(=O)C3=C(O)CCCC3=O)c2=O)cc1OC , is Plant response rating, Nutsedge, Yellow less than 60?
Output: false

Task: Check O=C1CCCC(O)=C1C(=O)c1cnc(-c2ccsc2)n(-c2ccccc2)c1=O too.
Output: false

Task: What about COCCCn1c(-c2cc(F)cc(F)c2)ncc(C(=O)C2=C(O)CCCC2=O)c1=O ?
Output: false

Task: Then CCCc1ncc(C(=O)C2=C(O)CCCC2=O)c(=O)n1-c1ccccc1C ?
Output: false

Task: What do you get for Cn1c(-c2ccccc2)ncc(C(=O)C2=C(O)CCCC2=O)c1=O ?
Output: true

Task: # repeat for CCCCc1ncc(C(=O)C2=C(O)CCCC2=O)c(=O)n1-c1ccc(C)cc1
Output: false

====

Kindly supply the reported Plant response rating, Pigweed values for the records listed here.
- Tested on: pigweed (Amaranthus retroflexus)
- run-description: Test B pre-/postemergence plant response
- Assay type: in vivo
- recorded-conditions: Postemergence, 125 g ai/ha; scale 0 to 100 (0 no effect, 100 complete control)
Answers are plain numbers.

Below: 5 compounds and their reported Plant response rating, Pigweed.
COCC(C)n1c(-c2ccccc2)ncc(C(=O)C2=C(O)CCCC2=O)c1=O (stereo not shown) [Compound 107]: 100
CCCn1c(-c2cc(F)cc(F)c2)ncc(C(=O)C2=C(O)CCCC2=O)c1=O [Compound 152]: 100
Cc1ccc(Cl)cc1-n1c(-c2cccc(F)c2)ncc(C(=O)C2=C(O)CCCC2=O)c1=O [Compound 184]: 75
CCCn1c(-c2cc(C)cc(C)c2)ncc(C(=O)C2=C(O)CCCC2=O)c1=O [Compound 156]: 98
O=C1CCCC(O)=C1C(=O)c1cnc(-c2cccs2)n(C2CCCCC2)c1=O [Compound 189]: 100

Count: 2. Required value per item: Plant response rating, Pigweed.
1. COCCn1c(-c2cc(F)cc(F)c2)ncc(C(=O)C2=C(O)CCCC2=O)c1=O [Compound 119]
2. CCCn1c(-c2ccc(F)cc2)ncc(C(=O)C2=C(O)CCCC2=O)c1=O [Compound 102]

Output:
100
95

====

- Test system: kochia (Kochia scoparia)
- run-description: Test B pre-/postemergence plant response
- Type: in vivo
- recorded-conditions: Postemergence, 250 g ai/ha; scale 0 to 100 (0 no effect, 100 complete control)
observation-type: Plant response rating, Kochia
Give bare numbers.

CCCCCn1c(-c2ccccc2)ncc(C(=O)C2=C(O)CCCC2=O)c1=O [Compound 89]: 100

Look at each compound and report its Plant response rating, Kochia.
1. CCCCn1c(-c2cc(F)cc(F)c2)ncc(C(=O)C2=C(O)CCCC2=O)c1=O [Compound 121]
2. CCCCc1ncc(C(=O)C2=C(O)CCCC2=O)c(=O)n1-c1cccc(C)c1 [Compound 63]
3. Cc1ccc(-c2ncc(C(=O)C3=C(O)CCCC3=O)c(=O)n2-c2ccccc2)cc1 [Compound 80]
4. CC(C)CC(=O)OC1=C(C(=O)c2cnc(-c3ccccc3)n(-c3ccccc3)c2=O)C(=O)CCC1 [Compound 83]

Output:
100
65
60
95

Field: Plant response rating, Kochia. Fill in for each record below.
1. CCCCn1c(-c2ccccc2)ncc(C(=O)C2=C(O)CCCC2=O)c1=O [Compound 86]
2. O=C1CCCC(O)=C1C(=O)c1cnc(-c2ccsc2)n(-c2ccccc2)c1=O [Compound 56]

Output:
1. 98
2. 100
